biological target: purified HHAT (Homo sapiens); construct: made in house; experiment: Acyl-cLIP assay, inhibition of purified HHAT; assay type: biochemical
Sequence (Q5VTY9 whole entry): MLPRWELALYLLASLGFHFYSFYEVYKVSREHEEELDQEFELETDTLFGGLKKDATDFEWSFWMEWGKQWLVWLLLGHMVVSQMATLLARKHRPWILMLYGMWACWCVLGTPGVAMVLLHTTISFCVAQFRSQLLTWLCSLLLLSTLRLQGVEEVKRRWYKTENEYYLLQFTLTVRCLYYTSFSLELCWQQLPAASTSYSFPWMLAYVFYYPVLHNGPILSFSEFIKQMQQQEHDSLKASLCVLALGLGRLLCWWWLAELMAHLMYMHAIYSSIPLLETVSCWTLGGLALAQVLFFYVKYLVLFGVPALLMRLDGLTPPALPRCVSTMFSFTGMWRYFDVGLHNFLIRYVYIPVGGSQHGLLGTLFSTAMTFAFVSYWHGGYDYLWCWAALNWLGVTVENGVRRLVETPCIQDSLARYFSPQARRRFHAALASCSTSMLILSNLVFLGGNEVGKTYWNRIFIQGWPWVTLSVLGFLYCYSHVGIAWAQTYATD
Output t for inhibition at 50 µM not less than 50%; output f otherwise.

molecule | assigned.category
CCC(C)CNCC(=O)N1CCc2sccc2C1COc1cccc(C)c1 (centres unmarked) [Compound 3] | t

Query :: Evaluate CC(=O)N1CCc2sccc2C1c1ccccn1 (centres unmarked) [Compound 18] : inhibition at 50 µM at minimum 50%?
Result :: t

Query :: Evaluate CCC(C)CNCC(=O)N1CCc2sccc2C1c1ccccc1OC (centres unmarked) [Compound 32] : inhibition at 50 µM at minimum 50%?
Result :: t

Query :: Evaluate CCC(C)CNCC(=O)N1CCc2sccc2C1C1CCCCC1 (centres unmarked) [Compound 36] : inhibition at 50 µM at minimum 50%?
Result :: f

Query :: Evaluate CC(=O)N1CCc2ccccc2C1c1ccccc1 (centres unmarked) [Compound 37] : inhibition at 50 µM at minimum 50%?
Result :: t

----------
biological target: purified HHAT (Homo sapiens); construct: made in house; test: Acyl-cLIP assay, inhibition of purified HHAT; type: biochemical; conditions: from Acyl-cLIP IC50 and clogDpH7.4
outcome.measure: LLEAcyl-cLIP
Numbers only.

Here is how some molecules turned out for LLEAcyl-cLIP.
molecule | LLEAcyl-cLIP
CCC(C)CNCC(=O)N1CCc2sccc2C1c1ccccn1 (stereo not shown) | 3.84
CCC(C)CNCC(=O)N1CCc2sccc2C1c1ccccc1OC (stereo not shown) | 3.00
Cc1cccc(C2c3ccsc3CCN2C(=O)CNCCC(C)C)n1 (stereo not shown) | 3.90
Cc1cccc([C@H]2c3ccsc3CCN2C(=O)CNCC(C)C)n1 | 5.14
CCC(C)CNCC(=O)N1CCc2sccc2C1c1ccccc1O (stereo not shown) | 3.35

Quick batch: LLEAcyl-cLIP for everything below.
1. CCC(C)CNCC(=O)N1CCc2sccc2C1c1cccc(C)c1 (stereo not shown)
2. CC(C)CNCC(=O)N1CCc2ccccc2C1c1ccccc1 (stereo in doubt) [Compound 43]

Result ::
1. 2.91
2. 3.64

----------
Can you tell me log10 of EC50 for the items I'm about to list?
test system: HH signaling (HEK293a SHH+ conditioned media on SHH-Light2 cells); assay: Light2 dual-luciferase cell-based HH signaling assay (Firefly); settings: Firefly luciferase, Light2 cells; read-out: HH signaling inhibition EC50 (CI95)
Log scale reminder: EC50 in nM, then log10 taken.

Here is how some compounds turned out for log10 of EC50.
compound | log10 of EC50
C=CCNCC(=O)N1CCc2sccc2C1c1ccccc1 (stereo not drawn) | 3.47
C=CC(=O)N1CCc2sccc2C1c1cccc(C)c1 (stereo not drawn) | 3.47
CCC(C)CNCC(=O)N1CCc2sccc2C1c1cccc(C)c1 (stereo not drawn) | 3.07

Quick batch: log10 of EC50 for everything below.
1. Cc1cccc(C2c3ccsc3CCN2C(=O)CNCCC(C)C)n1 (stereo not drawn)
2. Cc1cccc(C2c3ccsc3CCN2C(=O)CNCC(C)C)n1 (stereo not drawn)
3. CC(C)CNCC(=O)N1CCc2ccccc2C1c1ccccc1 (stereo not drawn) [Compound 39]
4. CCC(C)CNCC(=O)N1CCc2sccc2C1c1ccccn1 (stereo not drawn)
5. Cc1cccc([C@H]2c3ccsc3CCN2C(=O)CNCC(C)C)n1
6. CC(C)CNCC(=O)N1CCc2ccccc2C1c1ccccc1 (stereo in doubt) [Compound 43]
7. CC[C@H](C)CNCC(=O)N1CCc2sccc2C1c1cccc(C)n1 (stereo partly drawn)
8. CCC(C)CNCC(=O)N1CCc2ccc(Cl)cc2C1c1ccccc1 (stereo not drawn)

Result ::
1. 3.63
2. 3.07
3. 3.41
4. 2.76
5. 2.00
6. 2.90
7. 3.20
8. 3.81

Quick batch: log10 of EC50 for everything below.
1. CC(=O)N1CCc2sccc2C1c1cccc(C)n1 (stereo not drawn)
2. CCC(C)CNCC(=O)N1CCc2sccc2C1c1cccc(C)n1 (stereo not drawn)

Result ::
3.74
2.76

Quick batch: log10 of EC50 for everything below.
1. CC(=O)N1CCc2sccc2C1c1ccccc1 (stereo not drawn)
2. CC(=O)N1CCc2sccc2[C@@H]1c1cccc(C)n1

Result ::
[3.66, 3.11]
